# Experimental protocol: Stability of pure lycopene isomers in n-hexane during storage at room temperature
# Assay type: physicochemical
# Reported conditions: n-hexane, room temperature, absence of light, 2 days
# Protocol: Pure 5-Z, 9-Z, 13-Z and all-E lycopene were isolated from isomerised tomato oleoresin (submitted to 1 hour heating), by collecting the fractions containing the corresponding peaks after HPLC separation (see below the experimental conditions). […] Amount of total lycopene was determined by reverse phase HPLC on a C18 precolumn (ODS Hypersil, 5 μm, 20×4 mm; Hewlett Packard, Geneva, Switzerland) and a C18 column (Nova pak, 3.9 μm i.d.×300 mm length, Millipore, Volketswil, Switzerland). […]
Quantity measured: concentration all E

The following compounds have reported results that may help.
Smiles entry: CC(C)=CCC\C(C)=C/C=C/C(C)=C/C=C/C(C)=C/C=C/C=C(C)/C=C/C=C(C)/C=C/C=C(\C)CCC=C(C)C
Experimental value: 2.4 % of total isomers

Smiles entry: CC(C)=CCC/C(C)=C/C=C/C(C)=C/C=C/C(C)=C/C=C/C=C(C)/C=C/C=C(C)/C=C/C=C(\C)CCC=C(C)C
Experimental value: 78.4 % of total isomers

Return reported concentration all E values for all items listed beneath this line.
1. CC(C)=CCC/C(C)=C/C=C/C(C)=C/C=C/C(C)=C\C=C\C=C(C)\C=C\C=C(C)\C=C\C=C(/C)CCC=C(C)C
2. CC(C)=CCC/C(C)=C/C=C/C(C)=C\C=C\C(C)=C\C=C\C=C(C)\C=C\C=C(C)\C=C\C=C(/C)CCC=C(C)C

Reply:
59.8 % of total isomers
6.0 % of total isomers
